- Procedure Details: Metabolic stability in human plasma assessed as parent compound remaining at 50 uM incubated for 60 mins by LC-UV analysis
- Type: ADME, cell-free
- Condition Context: read-out: Stability
Each item that follows carries a reported remaining at 1 h, 50 µM.

Example entries and their recorded answers appear below.
[C-]#[N+]c1ccc(NC(=O)c2ccncc2)cc1    > 99%
[C-]#[N+]c1ccc(NC(=O)Cc2cccc(Cl)c2)cc1    > 99%
[C-]#[N+]c1ccc(NC(=O)Cc2ccccc2)cc1    > 99%

# context switch: different molecule, same remaining at 1 h, 50 µM
The recorded remaining at 1 h, 50 µM for entry [C-]#[N+]c1ccc(C(=O)NCc2ccccc2)cc1 equals 91%
